testedTarget: T1, recombinant mouse WISP1/His (mouse, UniProt O54775 23-367)
T1 construct: also called murine WISP1; mWISP1; not shown: His tag
T1 sequence (looked up): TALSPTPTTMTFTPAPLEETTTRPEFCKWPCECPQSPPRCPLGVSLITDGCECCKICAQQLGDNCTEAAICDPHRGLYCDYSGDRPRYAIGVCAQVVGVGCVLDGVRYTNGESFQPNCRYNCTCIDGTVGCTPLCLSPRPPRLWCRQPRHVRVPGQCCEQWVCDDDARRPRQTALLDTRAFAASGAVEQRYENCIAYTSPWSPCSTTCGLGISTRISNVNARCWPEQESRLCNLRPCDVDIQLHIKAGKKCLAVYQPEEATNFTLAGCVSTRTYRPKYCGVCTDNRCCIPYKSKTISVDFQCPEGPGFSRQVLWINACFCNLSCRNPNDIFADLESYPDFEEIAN
protocolSummary: ELISA screening
endpointName: binding result

INSERT INTO assay_data (binder, result) VALUES
  ('WIr2A9 (antibody, V domains shown, Fully human IgG; also called Wlr2A9) VH: QVQLVESGAEVKKPGASVKVSCKVSGYTLTELSMHWVRQAPGKGLEWMGGFDPEDGETIYAQKFQGRVTMTEDTSTDTAYMELSSLRSEDTAVYYCATGGSYYYGSGSYGSRPGYFDLWGRGTLVTVSS VL: QSVLTQPASVSGSPGQSITISCTGTSSDVGSYNLVSWYQQHPGKAPKLMIYEGSKRPSGVPDRFSGSKSGNTASLSISGLQAEDEADYYCSSYTSSSTLVFGGGTKLTVL', 'binds'),
  ('WIr2E4 (antibody, V domains shown, Fully human IgG; also called Wlr2E4) VH: QVQLQQSGAEVKKPGASVKVSCKVSGYTLTELSMHWVRQAPGKGLEWMGGFDPEDGETIYAQKFQGRVTMTEDTSTDTAYMELSSLRSEDTAVYYCATDRWWERTTWGAFDIWGQGTMVTVSS VL: QSVLTQPASVSGSPGQSITISCIGTGSAAVSWYQQHPGKAPKLIIYDVNNRPSGVSARFSGSKSDNTASLTISGLQAEDEGDYYCSTYGAGSTWVFGGGTKLTVL', 'binds'),
  ('WIr1G10 (antibody, V domains shown, Fully human IgG; also called Wlr1G10) VH: QVQLQQSGPGLVKPSQTLSLTCAISGDTVSSNSAAWNWIRQSPSRGLEWLGGTYYRSKWYNDYAVSVKSRITINPDTSKNQFSLQLNSVTPEDTAVYYCTRSAPAAFDYWGQGTLVTVSS VL: QSVVTQPPSVSAAPGQKVTISCSGSTSNIGNNYVSWYQQLPGTAPKLLIYDNNKRPSGIPDRFSGSKSGTSATLGITGLQTGDEADYYCGTSDTSLSIYVFGTGTKVTVL', 'binds');
